Every entry's value here was drawn from patent US20240109881A1.

Biological target: IRAK4 (Homo sapiens, UniProt Q9NWZ3)
Construct: endogenous in cells; host or cells: THP-1 cells
Sequence (Q9NWZ3 1-460): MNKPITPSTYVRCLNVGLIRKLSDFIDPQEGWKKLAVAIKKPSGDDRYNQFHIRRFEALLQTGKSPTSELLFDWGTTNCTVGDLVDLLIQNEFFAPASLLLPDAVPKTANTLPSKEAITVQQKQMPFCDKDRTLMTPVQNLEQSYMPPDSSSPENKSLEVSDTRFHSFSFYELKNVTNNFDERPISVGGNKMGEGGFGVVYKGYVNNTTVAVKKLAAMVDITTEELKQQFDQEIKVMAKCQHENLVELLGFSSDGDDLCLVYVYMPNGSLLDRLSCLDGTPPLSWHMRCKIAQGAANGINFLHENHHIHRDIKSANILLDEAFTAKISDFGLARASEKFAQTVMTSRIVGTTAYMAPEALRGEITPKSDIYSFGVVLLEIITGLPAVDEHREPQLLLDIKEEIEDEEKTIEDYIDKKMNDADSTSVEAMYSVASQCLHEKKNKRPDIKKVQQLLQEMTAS
Assay: LVL THP1 HTRF (THP1 Homogeneous Time Resolved Fluorescence)
Assay type: cell-based
Settings: THP1 cells, 18 h incubation with compound, read-out: LVL THP1 HTRF EC50
Method: Cell culture media was prepared in a tissue culture hood in a sterile environment by adding 10% FBS and 1% Penicillin Streptomycin to 500 mL no phenol red RPMI 1640 media. The media was filtered through a Nalgene Bottle Top Filter and stored at 4° C. For Homogenous Time Resolved Fluorescence (HTRF) assays, a Cisbio HTRF kit was used, which included: Lysis Buffer #1 4×, Blocking Reagent #3 100×, 20× Antibody 1 (Anti-IRAK4 d2), 20× Antibody 2 (Anti-IRAK4 k), and Detection Buffer. […]
// classify(record): look up DC50 in ranges category 1: < 3 nM; category 2: ≥ 3 nM and < 300 nM; category 3: ≥ 300 nM

For CC1CN(CC[C@H]2CC[C@H](c3cn(-c4cnc(-n5ncc6cc(C#N)cnc65)cc4N[C@H](C)C#N)nn3)CC2)CCC1c1ccc([C@@]2(F)CCC(=O)NC2=O)cc1 (single isomer, unassigned) [P-390] , which DC50 bin applies?
category 1

Given C[C@H](C#N)Nc1cc(-n2ncc3cc(C#N)c(N)nc32)ncc1-n1cc(C2CCC(CCN3C[C@@H](C)N(c4ccc(C5CCC(=O)NC5=O)cc4)C[C@@H]3C)CC2)nn1 (stereo partly shown) , name the class its DC50 places it in.
category 3

Sort C[C@H](C#N)Nc1cc(-c2ccc3cc(C#N)cnn23)ncc1-n1cc([C@H]2CC[C@H](CCN3CCN(c4ccc(C5CCC(=O)NC5=O)cc4)CC3)CC2)nn1 (stereo partly shown) into one of the categories.
category 1

Band for "C[C@H](C#N)Nc1cc(-n2ncc3cc(C#N)cnc32)ncc1-n1cc([C@H]2CC[C@H](CCN3CCC(O)(c4ccc(N5CCC(=O)NC5=O)cc4)CC3)CC2)nn1" ?
category 3

Note: place this molecule into its band. Item: C[C@H](C#N)Nc1cc(-n2ncc3cc(C#N)cnc32)ncc1-n1cc(C2CCC(CCN3CCN(c4ccc(C5CCC(=O)NC5=O)cc4)[C@H](C)C3)CC2)nn1 (stereo partly shown)
category 2

Assign a bin to C[C@H](C#N)Nc1cc(-n2ncc3cc(C#N)cnc32)ncc1-n1cc([C@H]2CC[C@H](CCN3CCN(c4ccc([C@@]5(C)CCC(=O)NC5=O)nc4)[C@@H](C)C3)CC2)nn1 (single isomer, unassigned) [P-290]
category 2

Sort "CC[C@@H]1CN(CC[C@H]2CC[C@H](c3cn(-c4cnc(-n5ncc6cc(C#N)c(N)nc65)cc4N[C@H](C)C#N)nn3)CC2)CCN1c1ccc(N2CCC(=O)NC2=O)cn1" into one of the categories.
category 1

Into which bin does this molecule go? C[C@H](C#N)Nc1cc(-n2ncc3cc(C#N)c(N)nc32)ncc1C(=O)N[C@H]1CC[C@H](CCN2CCN(c3ccc(C4CCC(=O)NC4=O)cn3)[C@H](C)C2)CC1 (stereo partly shown)
category 2

Tag the class for COc1cc(N2CCN(CC[C@H]3CC[C@H](NC(=O)c4cnc(-n5ncc6cc(C#N)c(N)nc65)cc4N[C@H](C)C#N)CC3)C[C@H]2C)ccc1C1CCC(=O)NC1=O (stereo partly shown)
category 2
